This section presents compounds with their documented Bliss excess values.
# System: HuH-7 (Hepatocellular Carcinoma);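 also: after 72 h of two-drug dosing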
# protocol description: Bliss excess, mean over the matrix (fraction); higher = more synergy

# compound, assay system, Bliss excess
measured = [
    ("Cc1c2c(nn1C)CSCc1cc(n(C)n1)CSc1cc(c3ccccc3c1)OCCCc1c(C(=O)O)n(C)c3c-2c(Cl)ccc13 [AZD5991] + C[C@@H](Nc1cc(F)cc(F)c1)c1cc(C(=O)N(C)C)cc2c(=O)cc(N3CCOCC3)oc12 [AZD8186] (first compound max 1 µM, 7x7, partner max 3 µM)", "HuH-7 (Hepatocellular Carcinoma)", -0.007),
    ("Cc1c2c(nn1C)CSCc1cc(n(C)n1)CSc1cc(c3ccccc3c1)OCCCc1c(C(=O)O)n(C)c3c-2c(Cl)ccc13 [AZD5991] + Cc1cc2ncnn2cc1Nc1ncc2c(n1)n(C1CCOCC1)c(=O)n2C [AZD7648] (first compound max 1 µM, 7x7, partner max 10 µM)", "HuH-7 (Hepatocellular Carcinoma)", -0.0408),
    ("CCN(CCO)CCCOc1ccc2c(Nc3cc(CC(=O)Nc4cccc(F)c4)[nH]n3)ncnc2c1 [AZD2811] + C=CCn1c(=O)c2cnc(Nc3ccc(N4CCN(C)CC4)cc3)nc2n1-c1cccc(C(C)(C)O)n1 [AZD1775] (first compound max 1 µM, partner max 1 µM)", "HuH-7 (Hepatocellular Carcinoma)", -0.0232),
    ("Cn1cnc2c(F)c(Nc3ccc(Br)cc3Cl)c(C(=O)NOCCO)cc21 [Selumetinib] + CC(C)n1c(=O)n(C)c2cnc3cc(F)c(-c4ccc(OCCCN5CCCCC5)nc4)cc3c21 [AZD1390] (first compound max 10 µM, 7x7, partner max 0.3 µM)", "HuH-7 (Hepatocellular Carcinoma)", -0.0205),
    ("CN(C)CCCOc1ccc(-c2ccc3ncc4c(c3c2)n(C2CCOCC2)c(=O)n4C)cn1 [AZD0156] + CCN(CCO)CCCOc1ccc2c(Nc3cc(CC(=O)Nc4cccc(F)c4)[nH]n3)ncnc2c1 [AZD2811] (first compound max 1 µM, 7x7, partner max 1 µM)", "HuH-7 (Hepatocellular Carcinoma)", -0.0381),
    ("Cc1nc(Nc2ncc(C(=O)Nc3c(C)cccc3Cl)s2)cc(N2CCN(CCO)CC2)n1 [Dasatinib] + CC(=O)Nc1cccc(-n2c(=O)n(C3CC3)c(=O)c3c(Nc4ccc(I)cc4F)n(C)c(=O)c(C)c32)c1 [Trametinib] (first compound max 2 µM, 7x7, partner max 1 µM)", "HuH-7 (Hepatocellular Carcinoma)", 0.0586),
    ("C[C@@H](c1ccc2nccn2c1)n1nnc2ncc(-c3cnn(C)c3)nc21 [Savolitinib] + CC1(C)CCC(CN2CCN(c3ccc(C(=O)NS(=O)(=O)c4ccc(NCC5CCOCC5)c([N+](=O)[O-])c4)c(Oc4cnc5[nH]ccc5c4)c3)CC2)=C(c2ccc(Cl)cc2)C1 [Venetoclax] (first compound max 1 µM, 7x7, partner max 1 µM)", "HuH-7 (Hepatocellular Carcinoma)", -0.0573),
]

* * *

# Test system: SAS (Oral Cavity Carcinoma)
# protocol description: combination Emax (second highest fraction inhibited in the dose matrix, 72 h); higher = more inhibition; extreme values may be limits of the assay
Please enter Criterion met where combination Emax is greater than or equal to 0.8, and Criterion not met where it is lower.

# molecule, class assignment
records = [
    ("Cc1cc2ncnn2cc1Nc1ncc2c(n1)n(C1CCOCC1)c(=O)n2C [AZD7648] + COc1cc([C@@H]2c3cc4c(cc3[C@@H](O[C@@H]3O[C@@H]5CO[C@@H](C)O[C@H]5[C@H](O)[C@H]3O)[C@H]3COC(=O)[C@H]23)OCO4)cc(OC)c1O [Etoposide] (first compound max 10 µM, 7x7, partner max 10 µM)", "Criterion met"),
    ("Cn1cnc2c(F)c(Nc3ccc(Br)cc3Cl)c(C(=O)NOCCO)cc21 [Selumetinib] + CCN(CCO)CCCOc1ccc2c(Nc3cc(CC(=O)Nc4cccc(F)c4)[nH]n3)ncnc2c1 [AZD2811] (first compound max 10 µM, 7x7, partner max 1 µM)", "Criterion not met"),
    ("Cc1nc(-c2cn3c(n2)-c2ccc(-c4cnn(C(C)(C)C(N)=O)c4)cc2OCC3)n(C(C)C)n1 [Taselisib] + O=C(Nc1ccc2[nH]nc(-c3ccncc3)c2c1)[C@@H]1CCN(CC(=O)N2CCN(c3ccc(-c4ncccn4)cc3)CC2)C1 [SCH772984] (first compound max 10 µM, 7x7, partner max 5 µM)", "Criterion met"),
    ("CS(=O)(=O)CCNCc1ccc(-c2ccc3ncnc(Nc4ccc(OCc5cccc(F)c5)c(Cl)c4)c3c2)o1 [Lapatinib] + C[C@@H](Oc1cc(-c2cnn(C3CCNCC3)c2)cnc1N)c1c(Cl)ccc(F)c1Cl [Crizotinib] (first compound max 10 µM, 7x7, partner max 10 µM)", "Criterion met"),
    ("CN(CCO)CC[C@H](CSc1ccccc1)Nc1ccc(S(=O)(=O)NC(=O)c2ccc(N3CCC([C@@H](O)c4ccccc4-c4ccc(Cl)cc4)CC3)cc2)cc1S(=O)(=O)C(F)(F)F [AZD4320] + C[C@@H]1COCCN1C2=NC(=NC(=C2)C3(CC3)[S@](=N)(=O)C)C4=C5C=CNC5=NC=C4 [AZD6738] (first compound max 1 µM, 7x7, partner max 10 µM)", "Criterion met"),
    ("O=C(c1cc(Cc2n[nH]c(=O)c3ccccc23)ccc1F)N1CCN(C(=O)C2CC2)CC1 [Olaparib] + CC1(C)CCC(CN2CCN(c3ccc(C(=O)NS(=O)(=O)c4ccc(NCC5CCOCC5)c([N+](=O)[O-])c4)c(Oc4cnc5[nH]ccc5c4)c3)CC2)=C(c2ccc(Cl)cc2)C1 [Venetoclax] (first compound max 10 µM, 7x7, partner max 1 µM)", "Criterion not met"),
]

Data provenance: the supplement of paper PMC11061612
